molecular target: Ubiquitin carboxyl-terminal hydrolase 8 (Homo sapiens); test: Inhibition of N-terminal His-6 tagged USP8 (734 to 1110 residues) (unknown origin) expressed in Escherichia coli BL21 (DE3) cells at 100 nM measured after 3 hrs by fluorescence based Plate reader method relative to control; settings: values are per cent of control
# residual activity values compiled below
// note: answer is a bare numeric in %

Sample answers from the record:
# Smiles Record, System Name, residual activity (%)
rows = [
    ("COc1cc(-c2nc3c(o2)C(=O)c2ccccc2C3=O)ccc1Cl", "Ubiquitin carboxyl-terminal hydrolase 8 (Homo sapiens)", 30),
    ("COc1cc(-c2nc3c(o2)C(=O)c2ccccc2C3=O)ccc1C(F)(F)F", "Ubiquitin carboxyl-terminal hydrolase 8 (Homo sapiens)", 42.7),
    ("N#Cc1ccc(-c2nc3c(o2)C(=O)c2ccccc2C3=O)cc1", "Ubiquitin carboxyl-terminal hydrolase 8 (Homo sapiens)", 20.8),
]

# evaluate next
# query: residual activity | item "COc1ccc(F)c(-c2nc3c(o2)C(=O)c2ccccc2C3=O)c1" | system: Ubiquitin carboxyl-terminal hydrolase 8 (Homo sapiens)
33.1

---

biological target: Ubiquitin thioesterase OTUB1 (Homo sapiens, UniProt Q96FW1); test: Inhibition of N-terminal His-6 tagged OTUB1 (40 to 271 residues) (unknown origin) expressed in Escherichia coli BL21 (DE3) cells at 100 nM using Ub-Rho measured after 0.5 to 3 hrs by fluorescence based Plate reader method relative to control; conditions: time 0.5-3 hrs, values are per cent of control
Sequence (Q96FW1 whole entry, the tested form may be a part): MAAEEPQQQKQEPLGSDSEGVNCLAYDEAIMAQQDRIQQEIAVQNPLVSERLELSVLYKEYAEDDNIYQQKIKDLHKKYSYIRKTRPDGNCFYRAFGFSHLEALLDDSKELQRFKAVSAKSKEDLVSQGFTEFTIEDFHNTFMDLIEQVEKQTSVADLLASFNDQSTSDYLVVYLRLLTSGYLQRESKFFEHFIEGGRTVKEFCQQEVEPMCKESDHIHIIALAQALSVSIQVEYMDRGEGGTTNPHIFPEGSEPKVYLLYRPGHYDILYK
Measurement Kind: residual activity (%)
// note: answer is a bare numeric in %

# query: residual activity | item "CN(C)CCOc1cccc(-c2nc3c([nH]2)C(=O)c2ccccc2C3=O)c1" | system: Ubiquitin thioesterase OTUB1 (Homo sapiens, UniProt Q96FW1)
80.4

# query: residual activity | item "O=C1c2ccccc2C(=O)c2oc(-c3ccccc3[N+](=O)[O-])nc21" | system: Ubiquitin thioesterase OTUB1 (Homo sapiens, UniProt Q96FW1)
19

# query: residual activity | item "Cc1cccc(Cl)c1-c1nc2c(o1)C(=O)c1ccccc1C2=O" | system: Ubiquitin thioesterase OTUB1 (Homo sapiens, UniProt Q96FW1)
23.5

# query: residual activity | item "CN1CC[C@@H](Oc2cccc(-c3nc4c(o3)C(=O)c3ccccc3C4=O)c2F)C1" | system: Ubiquitin thioesterase OTUB1 (Homo sapiens, UniProt Q96FW1)
41.3

# query: residual activity | item "O=C1c2ccccc2C(=O)c2oc(-c3ccccc3C(F)(F)F)nc21" | system: Ubiquitin thioesterase OTUB1 (Homo sapiens, UniProt Q96FW1)
25.8

# query: residual activity | item "O=C1c2ccccc2C(=O)c2[nH]c(-c3ccccc3)nc21" | system: Ubiquitin thioesterase OTUB1 (Homo sapiens, UniProt Q96FW1)
78.3

# query: residual activity | item "O=C1c2ccccc2C(=O)c2oc(-c3c(F)cccc3Cl)nc21" | system: Ubiquitin thioesterase OTUB1 (Homo sapiens, UniProt Q96FW1)
9.6

# query: residual activity | item "O=C1c2ccccc2C(=O)c2oc(-c3ccc(Cl)cc3Cl)nc21" | system: Ubiquitin thioesterase OTUB1 (Homo sapiens, UniProt Q96FW1)
42.2

# query: residual activity | item "O=C1c2ccccc2C(=O)c2oc(-c3ccc([N+](=O)[O-])cc3)nc21" | system: Ubiquitin thioesterase OTUB1 (Homo sapiens, UniProt Q96FW1)
16.3

---

target: Ubiquitin carboxyl-terminal hydrolase 8 (Homo sapiens) (UniProt P40818); test: Inhibition of N-terminal His-6 tagged USP8 (734 to 1110 residues) (unknown origin) expressed in Escherichia coli BL21 (DE3) cells at 10 nM measured after 3 hrs by fluorescence based Plate reader method relative to control; details: values are per cent of control
Sequence (P40818 whole entry, the tested form may be a part): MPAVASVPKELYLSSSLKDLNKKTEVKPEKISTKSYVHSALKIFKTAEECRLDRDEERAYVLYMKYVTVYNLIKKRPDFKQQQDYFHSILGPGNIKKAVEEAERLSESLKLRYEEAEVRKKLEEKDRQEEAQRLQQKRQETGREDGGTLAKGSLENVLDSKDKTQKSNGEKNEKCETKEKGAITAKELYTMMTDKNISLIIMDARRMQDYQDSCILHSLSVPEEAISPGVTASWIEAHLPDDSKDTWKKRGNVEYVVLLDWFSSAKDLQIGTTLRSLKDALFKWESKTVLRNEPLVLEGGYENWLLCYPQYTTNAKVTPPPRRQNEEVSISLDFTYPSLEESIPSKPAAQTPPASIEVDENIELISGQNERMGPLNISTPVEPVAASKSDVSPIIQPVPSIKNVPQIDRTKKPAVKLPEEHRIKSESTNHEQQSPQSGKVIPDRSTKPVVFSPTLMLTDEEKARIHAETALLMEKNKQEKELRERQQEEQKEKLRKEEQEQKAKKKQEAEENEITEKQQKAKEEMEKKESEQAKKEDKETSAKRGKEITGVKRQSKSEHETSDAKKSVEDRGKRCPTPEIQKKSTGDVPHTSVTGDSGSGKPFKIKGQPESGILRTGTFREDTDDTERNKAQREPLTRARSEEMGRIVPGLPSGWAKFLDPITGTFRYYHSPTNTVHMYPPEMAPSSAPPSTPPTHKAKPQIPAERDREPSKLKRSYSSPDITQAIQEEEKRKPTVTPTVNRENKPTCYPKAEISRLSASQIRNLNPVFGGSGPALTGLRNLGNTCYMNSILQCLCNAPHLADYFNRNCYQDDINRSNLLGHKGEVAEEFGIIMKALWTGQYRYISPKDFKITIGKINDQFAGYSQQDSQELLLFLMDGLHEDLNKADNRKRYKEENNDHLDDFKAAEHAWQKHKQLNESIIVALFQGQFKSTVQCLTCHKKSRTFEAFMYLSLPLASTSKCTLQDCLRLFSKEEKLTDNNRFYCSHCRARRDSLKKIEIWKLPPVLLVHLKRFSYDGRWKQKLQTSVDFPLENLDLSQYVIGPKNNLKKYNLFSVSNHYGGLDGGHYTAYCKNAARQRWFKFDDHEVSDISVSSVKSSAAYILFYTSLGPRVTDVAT
Measurement Kind: residual activity (%)
// note: answer is a bare numeric in %

Sample answers from the record:
# Smiles Record, Unit Info, residual activity
data = [
    ("O=C1c2ccccc2C(=O)c2oc(-c3c(F)cccc3Cl)nc21", "%", 62.9),
    ("COc1ccc(-c2nc3c(o2)C(=O)c2ccccc2C3=O)c(C(F)(F)F)c1", "%", 80.5),
    ("COc1ccc(Cl)c(-c2nc3c(o2)C(=O)c2ccccc2C3=O)c1F", "%", 74.1),
]

Query (molecule): "O=C1c2ccccc2C(=O)c2oc(-c3cccc(F)c3F)nc21" ; field requested: residual activity
40.1

---

target: Ubiquitin carboxyl-terminal hydrolase 8 (Homo sapiens) (UniProt P40818); assay: Inhibition of N-terminal His-6 tagged USP8 (734 to 1110 residues) (unknown origin) expressed in Escherichia coli BL21 (DE3) cells at 100 nM measured after 3 hrs by fluorescence based Plate reader method relative to control; details: values are per cent of control
Measurement Kind: residual activity (%)
// note: answer is a bare numeric in %

Sample answers from the record:
# Smiles Record, residual activity, %
measured = [
    ("O=C1c2ccccc2C(=O)c2oc(-c3ccccc3C(F)(F)F)nc21", 17.7),
    ("O=C1c2ccccc2C(=O)c2oc(-c3cccc(F)c3)nc21", 37.2),
    ("COc1cccc(-c2nc3c(o2)C(=O)c2ccccc2C3=O)c1F", 25.5),
]

# evaluate next
Query (compound): "CN1CC[C@@H](Oc2cccc(-c3nc4c(o3)C(=O)c3ccccc3C4=O)c2)C1" ; field requested: residual activity
30

---

molecular target: Ubiquitin thioesterase OTUB1 (Homo sapiens, UniProt Q96FW1); assay: Inhibition of N-terminal His-6 tagged OTUB1 (40 to 271 residues) (unknown origin) expressed in Escherichia coli BL21 (DE3) cells at 100 nM using Ub-Rho measured after 0.5 to 3 hrs by fluorescence based Plate reader method relative to control; settings: time 0.5-3 hrs, values are per cent of control
The label fulfilled is reserved for residual activity strictly under 30%; not fulfilled covers values equal to or above it.

Below, 5 compounds whose answers are already recorded.
# Smiles Record, Class Assignment
records = [
    ("COc1ccc2c(c1)C(=O)c1nc(-c3cccc(OCCN(C)C)c3)[nH]c1C2=O", "not fulfilled"),
    ("CN1CC[C@@H](Oc2ccc(-c3nc4c(o3)C(=O)c3ccccc3C4=O)c(Cl)c2)C1", "not fulfilled"),
    ("CN1CCN(CCOc2cccc(-c3nc4c(o3)C(=O)c3ccccc3C4=O)c2)CC1", "not fulfilled"),
    ("COc1ccc(Cl)c(-c2nc3c(o2)C(=O)c2ccccc2C3=O)c1F", "fulfilled"),
    ("O=C1c2ccccc2C(=O)c2oc(-c3cccnc3)nc21", "fulfilled"),
]

Does the reported residual activity of the following compound sit strictly below 30%? "COc1ccc(Cl)c(-c2nc3c(o2)C(=O)c2ccccc2C3=O)c1"
fulfilled

Does the reported residual activity of the following compound sit strictly below 30%? "COc1cc(O[C@@H]2CCN(C)C2)cc(-c2nc3c(o2)C(=O)c2ccccc2C3=O)c1"
not fulfilled

Does the reported residual activity of the following compound sit strictly below 30%? "O=C1c2ccccc2C(=O)c2oc(-c3cccc(F)c3)nc21"
fulfilled

Data provenance is ChEMBL document CHEMBL5108067.
